test system: sporadic PD patient fibroblasts; experiment: Cellular ATP levels in sporadic PD patient fibroblasts, full ATP assay; type: cell-based, human; conditions: Homo sapiens, Fibroblast, 24 h, max response with lowest dose of compound (0.06 nM), 3 sporadic PD patient fibroblasts, read-out: ATP % of vehicle, bottom %
Counter-ions that a name gives are not always drawn.
result type: activity at 60 pM (%)

compound	result type	unit descriptor	val
C[C@H](CCCC(=O)O)[C@H]1CC[C@H]2[C@@H]3[C@@H](O)C[C@@H]4CN(C)CC[C@]4(C)[C@H]3CC[C@]12C [Compound 31b]	activity at 60 pM	%	91.7
C[C@H](CCC(=O)O)[C@H]1CC[C@H]2[C@@H]3[C@@H](O)C[C@@H]4CN(C)CC[C@]4(C)[C@H]3CC[C@]12C [Compound 33, hydrochloride]	activity at 60 pM	%	88.8
CC[C@H](C)[C@H](N)C(=O)N1CC[C@@]2(C)[C@H](C[C@H](O)[C@@H]3[C@@H]2CC[C@]2(C)[C@@H]([C@H](C)CCC(=O)O)CC[C@@H]32)C1 [Compound 42a]	activity at 60 pM	%	89.6
CC[C@H](C)[C@H](N)C(=O)N1CC[C@@]2(C)[C@H](C[C@H](O)[C@@H]3[C@@H]2CC[C@]2(C)[C@@H]([C@H](C)CCCC(=O)O)CC[C@@H]32)C1 [Compound 42b]	activity at 60 pM	%	91.3
CC(C)C[C@H](N)C(=O)N1CC[C@@]2(C)[C@H](C[C@H](O)[C@@H]3[C@@H]2CC[C@]2(C)[C@@H]([C@H](C)CCC(=O)O)CC[C@@H]32)C1 [Compound 43a]	activity at 60 pM	%	90.2
C[C@H](CCC(=O)O)[C@H]1CC[C@H]2[C@@H]3[C@@H](O)C[C@@H]4CN(C(=O)CO)CC[C@]4(C)[C@H]3CC[C@]12C [Compound 40a]	activity at 60 pM	%	89.9
